test: yeast display, Sf9 membrane polyspecificity reagent, FACS + sequencing; frameworks hold sequencing errors
measurement.label: polyreactivity (PSR sort gate)

Example sequences with recorded polyreactivity (PSR sort gate):
residue.sequence: QVQLVESGGGLVQAGGSLRLSCAASGSIFLSNAMGWYRQAPGKERELVAAISRRGASTYYADSVKGRFTISRDNAKNTVYLQMNSLKPEDTAVYYCAARSYSAYGYNYWGQGTQVTVSS
polyreactivity (PSR sort gate): high polyreactivity
--
residue.sequence: QVQLVESGGGLVQAVCSLRLICAASGLTFGGYSMGWYRQAPAKERELVAAISRSCGSTYYADSVKGRFTISRDNAKNTVFLQMNSLKPEDTAVYYCNAGRDTKYDYWGQGTQVTVSS
polyreactivity (PSR sort gate): low polyreactivity
--
residue.sequence: QVQLVESGGGLVQAGGSLRLSCAASGLTFNVNAMGWYRQAPGKERELVARINTSGGSTSYADSVKGRFTISRDNAKNTVYLQMNSLKPEDTAVYYCAADRARYYSEYDYWGQGTQVTVSS
polyreactivity (PSR sort gate): low polyreactivity
--
residue.sequence: QVQLVESGGGLVQAGGSLRLSCAASGFTFRSYAMGLYRQAPGKEREFVAAINGRSGSTYADSVKGRFTISRDNAKNTVYLQMISLKPEDTAVYYCAARVRRGSTQAQFYYWGQGTQVTVSS
polyreactivity (PSR sort gate): high polyreactivity
--
residue.sequence: QVQLVESGGGLVQAGGSLRLSCAASGIIFGYYAMAWYRQAPGTERELVAAITSGASTDYADSVKGRFTISRDNAKNNVYLQMNSLKPEDTAVYYCNADTSASTYTFPFDYWGQGTQVTVSS
polyreactivity (PSR sort gate): low polyreactivity
--
residue.sequence: QVQHVESGGGLVQAGGSLRLSCAASGRTFARYTMGWYRQAPGKERELVAVISRSGGSTYYADSVKGRFTISRDNAKNSVYLQMNSVKPEDTAVYYCAAGDFVVSTLEYYYWGQGTQVTVSS
polyreactivity (PSR sort gate): high polyreactivity
--
residue.sequence: QFQLVESGGGLVQAGGSVRLSCAASGSTFYLYAMGWYRQAPGKERELVAAITYGGGSTYYADSVKGRFTISRDNAKNTVYLQMNSLKPEDTAVYYCAARWLYWPRYNSLVYTHRDSWGQGTQVTVSS
polyreactivity (PSR sort gate): low polyreactivity
--
residue.sequence: QVQIVESGGGIVQAGGSLRLSCAASGRTLQTYVMGWYRQSPGKEREWVAAITRGGGSTYYADSVKGRFTISRDNAKNTVYLQMNSLKPEDTAVYYCAASALRFNSSFSHWYNYWGQGTQVTVSS
polyreactivity (PSR sort gate): high polyreactivity
--
residue.sequence: QVQLVESGGGLVQAGGSLRLSCAASGRIFGTYAMGWYRQAPGKEREFVAAITSSGGNTYYADSVKGRFTISRDNAKNTVYLQMNSLKPEDTGVYYCNARPLYRHYITRFDYWGQGTQVTVSS
polyreactivity (PSR sort gate): high polyreactivity
--
residue.sequence: QVQLVESGGGLVQAGGSLRLSCAASGRTFFPYAMGWYRQAAGKERELVDAISLDDDTTYYADSVKGRFTISRDTAQNTVYLQMNSLKPEDTAVYYCATDGIVIYGGYYTGYDYWGQGTQVTVSS
polyreactivity (PSR sort gate): high polyreactivity

Which polyreactivity (PSR sort gate) is reported for this sequence? `QVQLVESGGGLVQAGGSLRLSCAASGRTFDSYTMGWYRQAPGKERELVAAIRSSGGRTYADSVKGRFTISRDNAKNTVYLQMNSLKPEDTAVYYCAAARSYWAKYYYWGQGTQVTVSS`
high polyreactivity

Each recorded value in this set is attributed to the nanobody polyreactivity screen of Harvey et al. (2022).
